# test.description: in vivo;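 also: drug levels in rat plasma quantified by LC/MS/MS after a combined two-compound formulation, quantitation limit 5 ng/mL with lower values set to zero, parameters from noncompartmental analysis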
# condition.set: male, Sprague Dawley, rat, iv, 5 mg/kg
property.name: clearance (mL/min/kg)
Expressed in mL/min/kg, but write only the number.

Problem: # query: clearance of entry CC(=O)NC[C@H]1CN(c2ccc(N3CCOCC3)c(F)c2)C(=O)O1
Result: 9.17

----------
# test.description: in vivo
# condition.set: male, Sprague Dawley, rat, po, 5 mg/kg
property.name: Cmax (ng/mL)
Expressed in ng/mL, but write only the number.

Problem: # query: Cmax of entry CC(=O)NC[C@H]1CN(c2ccc(N3CCOCC3)c(F)c2)C(=O)O1
Result: 2370
